The following compounds are listed with their measured fast inactivation onset time constant FI −30 mV values.
Biological target: WT Nav1.5-α subunits (Homo sapiens)
Construct: expressed in transfected cells; host or cells: HEK293 (transient transfection)
Sequence (Q14524 whole entry): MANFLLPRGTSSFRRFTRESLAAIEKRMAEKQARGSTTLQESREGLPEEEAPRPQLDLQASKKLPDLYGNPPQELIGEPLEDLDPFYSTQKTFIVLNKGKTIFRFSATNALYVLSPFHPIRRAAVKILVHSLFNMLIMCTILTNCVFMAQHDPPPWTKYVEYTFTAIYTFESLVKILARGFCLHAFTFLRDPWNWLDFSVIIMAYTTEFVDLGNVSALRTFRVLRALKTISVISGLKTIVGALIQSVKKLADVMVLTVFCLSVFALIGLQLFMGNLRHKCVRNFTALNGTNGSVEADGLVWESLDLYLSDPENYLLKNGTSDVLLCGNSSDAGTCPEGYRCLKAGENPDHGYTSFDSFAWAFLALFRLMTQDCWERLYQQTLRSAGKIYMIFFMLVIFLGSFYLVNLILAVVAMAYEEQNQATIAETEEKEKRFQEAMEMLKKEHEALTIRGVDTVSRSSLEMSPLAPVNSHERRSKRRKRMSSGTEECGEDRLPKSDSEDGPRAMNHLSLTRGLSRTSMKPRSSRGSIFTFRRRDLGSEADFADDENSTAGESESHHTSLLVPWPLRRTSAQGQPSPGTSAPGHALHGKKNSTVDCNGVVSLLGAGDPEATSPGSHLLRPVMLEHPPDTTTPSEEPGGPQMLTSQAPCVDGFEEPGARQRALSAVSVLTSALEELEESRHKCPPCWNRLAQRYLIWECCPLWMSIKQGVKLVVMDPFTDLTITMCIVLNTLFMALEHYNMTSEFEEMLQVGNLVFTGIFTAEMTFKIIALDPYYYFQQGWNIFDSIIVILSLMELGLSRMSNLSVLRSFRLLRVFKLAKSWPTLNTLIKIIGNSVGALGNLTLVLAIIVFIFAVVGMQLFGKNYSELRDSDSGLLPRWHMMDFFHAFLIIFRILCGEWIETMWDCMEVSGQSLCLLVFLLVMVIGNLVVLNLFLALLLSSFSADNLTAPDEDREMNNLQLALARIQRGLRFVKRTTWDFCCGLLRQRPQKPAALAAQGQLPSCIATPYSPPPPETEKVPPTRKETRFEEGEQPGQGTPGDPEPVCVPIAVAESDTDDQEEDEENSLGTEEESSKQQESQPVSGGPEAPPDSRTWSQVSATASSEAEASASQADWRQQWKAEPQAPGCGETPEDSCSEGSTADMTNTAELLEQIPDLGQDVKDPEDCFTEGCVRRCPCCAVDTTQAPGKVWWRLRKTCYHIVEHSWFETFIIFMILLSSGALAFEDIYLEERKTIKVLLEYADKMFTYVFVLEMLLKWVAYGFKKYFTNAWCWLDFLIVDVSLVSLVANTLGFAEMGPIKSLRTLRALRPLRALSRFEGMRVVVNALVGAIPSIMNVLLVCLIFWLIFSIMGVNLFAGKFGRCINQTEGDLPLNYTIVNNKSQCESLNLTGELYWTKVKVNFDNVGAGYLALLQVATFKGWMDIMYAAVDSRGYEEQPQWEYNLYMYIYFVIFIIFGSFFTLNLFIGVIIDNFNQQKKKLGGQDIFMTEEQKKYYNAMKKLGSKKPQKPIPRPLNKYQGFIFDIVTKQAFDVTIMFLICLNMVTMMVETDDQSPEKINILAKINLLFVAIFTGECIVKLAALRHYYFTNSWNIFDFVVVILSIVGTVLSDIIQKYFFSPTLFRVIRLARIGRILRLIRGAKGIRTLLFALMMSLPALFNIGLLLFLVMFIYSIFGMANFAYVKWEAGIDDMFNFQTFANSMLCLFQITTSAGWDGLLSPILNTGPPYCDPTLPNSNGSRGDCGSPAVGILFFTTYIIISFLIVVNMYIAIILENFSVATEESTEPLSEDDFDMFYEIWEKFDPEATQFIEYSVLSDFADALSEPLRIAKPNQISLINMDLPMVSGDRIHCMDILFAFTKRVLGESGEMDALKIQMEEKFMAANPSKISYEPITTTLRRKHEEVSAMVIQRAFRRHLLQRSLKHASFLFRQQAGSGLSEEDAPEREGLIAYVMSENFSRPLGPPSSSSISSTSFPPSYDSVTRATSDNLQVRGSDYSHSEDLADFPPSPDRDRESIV
Assay: Whole-cell patch clamp, single voltage-pulse protocol (peak INa, conductance, fast inactivation) in transiently transfected HEK293 cells
Format: cell-based
Settings: 50 μM
All answers are understood in ms, so give the number only.

Field: example entries. Status: answers known.
O=C1N=c2ccc(C(=O)NCc3ccco3)cc2=NC1=O
0.94
CN(C)[C@@H](CNC(=O)c1ccc2c(c1)=NC(=O)C(=O)N=2)c1ccco1
0.69
C=CCNS(=O)(=O)c1ccc2c(c1)=NC(=O)N=2
0.63
CCc1ccccc1NS(=O)(=O)c1ccc2c(c1)=NC(=O)N=2
1.02
COc1cccc(NS(=O)(=O)c2ccc3c(c2)=NC(=O)N=3)c1
0.75

Qu. Query (compound): Cc1cc(F)ccc1NS(=O)(=O)c1ccc2c(c1)=NC(=O)N=2 ; field requested: fast inactivation onset time constant FI −30 mV
Ans. 0.63

###

The following compounds are listed with their measured % Block −20 mV values.
Molecular target: WT Nav1.5-α subunits (Homo sapiens)
Construct: expressed in transfected cells; host or cells: HEK293 (transient transfection)
Assay: Whole-cell patch clamp, single voltage-pulse protocol (peak INa, conductance, fast inactivation) in transiently transfected HEK293 cells
Assay type: cell-based
Settings: 10 μM
All answers are understood in %, so give the number only.

Field: example entries. Status: answers known.
CCc1ccccc1NS(=O)(=O)c1ccc2c(c1)=NC(=O)N=2 [ZINC64470737]
−22.45
CN(C)[C@@H](CNC(=O)c1ccc2c(c1)=NC(=O)C(=O)N=2)c1ccco1 [ZINC40014265]
−20.00
COc1cccc(NS(=O)(=O)c2ccc3c(c2)=NC(=O)N=3)c1 [ZINC64470729]
−22.68
Cc1cc(F)ccc1NS(=O)(=O)c1ccc2c(c1)=NC(=O)N=2 [ZINC64470745]
−23.71
O=C1N=c2ccc(C(=O)NCc3ccco3)cc2=NC1=O [ZINC38767171]
−24.21

Alright, here's another compound for you.
Qu. Enter reported % Block −20 mV observed with WT Nav1.5-α subunits (Homo sapiens) for C=CCNS(=O)(=O)c1ccc2c(c1)=NC(=O)N=2 [ZINC39699427]
Ans. −34.00

###

Target: WT Nav1.5-α subunits (Homo sapiens)
Construct: expressed in transfected cells; host or cells: HEK293 (transient transfection)
Experiment: Whole-cell patch clamp, single voltage-pulse protocol (peak INa, conductance, fast inactivation) in transiently transfected HEK293 cells
Format: cell-based
Conditions: 10 μM
The following compounds are listed with their measured fast inactivation onset time constant FI −50 mV values.
All answers are understood in ms, so give the number only.

Field: example entries. Status: answers known.
CN(C)[C@@H](CNC(=O)c1ccc2c(c1)=NC(=O)C(=O)N=2)c1ccco1
2.98
C=CCNS(=O)(=O)c1ccc2c(c1)=NC(=O)N=2
1.32
CCc1ccccc1NS(=O)(=O)c1ccc2c(c1)=NC(=O)N=2
1.37
O=C1N=c2ccc(C(=O)NCc3ccco3)cc2=NC1=O
1.70
Cc1cc(F)ccc1NS(=O)(=O)c1ccc2c(c1)=NC(=O)N=2
2.12

Alright, here's another compound for you.
Qu. Query (compound): COc1cccc(NS(=O)(=O)c2ccc3c(c2)=NC(=O)N=3)c1 ; field requested: fast inactivation onset time constant FI −50 mV
Ans. 1.67

All values here come from patent US20220125784A1.
